Numbers sourced from paper PMC10397247.

# experimental system: T1, 4H48-bH
# T1 chain: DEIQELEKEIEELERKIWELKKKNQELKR
# test details: two-hybrid library CCNG1;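 further: natural log of median RNA to DNA barcode read ratio; higher means stronger binding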
# binarize interaction score: threshold 0.6 inclusive, high side yes (1), low side no (0)

{"binder": "DKIQELKKKIEELKREIWELEKENQELER [4H2883-bH]", "discrete label": "yes (1)"}
{"binder": "DEIQELEKKIEELKRENWELEKKIQELKR [4H342-bH]", "discrete label": "no (0)"}
{"binder": "DKIQELKKENEELEREIWELEKKNQELKR [4H2696-bH]", "discrete label": "yes (1)"}
{"binder": "DKIQELKKKIEELKRKNWELKKKNQELKR [4H2944-bH]", "discrete label": "yes (1)"}
{"binder": "DEIQELEKEIEELERKIWELKKKNQELKR [4H48-bH]", "discrete label": "yes (1)"}
{"binder": "DKIQELKKKIEELKRKNWELKKEIQELER [4H2937-bH]", "discrete label": "no (0)"}
{"binder": "DEIQELEKEIEELERENWELEKENQELER [4H19-bH]", "discrete label": "no (0)"}
